experiment: Single dose IV and PO PK study in Han Wistar rats
Assay type: in vivo
condition_info: rat, plasma, oral 10 mg/kg
observable: bioavailability (%)
The reply should contain only the number, in %.

-- ask Requested read-out: bioavailability. Entry: CC(C)Oc1nc(NC(=O)CSCC(=O)O)c(Cl)cc1Cl [PD152]
-- reply 141

###

experiment: Tissue distribution in C57BL/6 male mice
Assay type: in vivo, C57BL/6 mice
condition_info: male, C57BL/6, mouse, plasma; mice, oral 10 mg/kg, 8 hrs; read-out: Plasma concentration
observable: concentration at 8 h (ng/mL)
The reply should contain only the number, in ng/mL.

-- ask Requested read-out: concentration at 8 h. Entry: CC(C)Oc1nc(NC(=O)CSCC(=O)O)c(Cl)cc1Cl [PD152]
-- reply 149

###

experiment: Tissue distribution in C57BL/6 male mice
Type: in vivo, C57BL/6 mice
condition_info: male, C57BL/6, mouse, white adipose tissue; mice, oral 10 mg/kg, 8 hrs; read-out: Adipose tissue concentration
observable: concentration at 8 h (ng/g)
The reply should contain only the number, in ng/g.

-- ask Requested read-out: concentration at 8 h. Entry: CC(C)Oc1nc(NC(=O)CSCC(=O)O)c(Cl)cc1Cl [PD152]
-- reply 596
